All values here come from ChEMBL document CHEMBL2401700.

# PROTOCOL_SUMMARY: Oral bioavailability in beagle dog at 2 mg/kg
# Type: ADME, organism-based, Canis lupus familiaris
# DETAILS: in vivo
QUANTITY: bioavailability (%)

* COC(=O)N1CCC(CN2CCC(CNC(=O)c3cccc4[nH]c(C(C)C)nc34)CC2)CC1 | 63

###

# TARGET_SYSTEM: hERG (KCNH2) (Homo sapiens)
# Sequence (Q12809 whole entry): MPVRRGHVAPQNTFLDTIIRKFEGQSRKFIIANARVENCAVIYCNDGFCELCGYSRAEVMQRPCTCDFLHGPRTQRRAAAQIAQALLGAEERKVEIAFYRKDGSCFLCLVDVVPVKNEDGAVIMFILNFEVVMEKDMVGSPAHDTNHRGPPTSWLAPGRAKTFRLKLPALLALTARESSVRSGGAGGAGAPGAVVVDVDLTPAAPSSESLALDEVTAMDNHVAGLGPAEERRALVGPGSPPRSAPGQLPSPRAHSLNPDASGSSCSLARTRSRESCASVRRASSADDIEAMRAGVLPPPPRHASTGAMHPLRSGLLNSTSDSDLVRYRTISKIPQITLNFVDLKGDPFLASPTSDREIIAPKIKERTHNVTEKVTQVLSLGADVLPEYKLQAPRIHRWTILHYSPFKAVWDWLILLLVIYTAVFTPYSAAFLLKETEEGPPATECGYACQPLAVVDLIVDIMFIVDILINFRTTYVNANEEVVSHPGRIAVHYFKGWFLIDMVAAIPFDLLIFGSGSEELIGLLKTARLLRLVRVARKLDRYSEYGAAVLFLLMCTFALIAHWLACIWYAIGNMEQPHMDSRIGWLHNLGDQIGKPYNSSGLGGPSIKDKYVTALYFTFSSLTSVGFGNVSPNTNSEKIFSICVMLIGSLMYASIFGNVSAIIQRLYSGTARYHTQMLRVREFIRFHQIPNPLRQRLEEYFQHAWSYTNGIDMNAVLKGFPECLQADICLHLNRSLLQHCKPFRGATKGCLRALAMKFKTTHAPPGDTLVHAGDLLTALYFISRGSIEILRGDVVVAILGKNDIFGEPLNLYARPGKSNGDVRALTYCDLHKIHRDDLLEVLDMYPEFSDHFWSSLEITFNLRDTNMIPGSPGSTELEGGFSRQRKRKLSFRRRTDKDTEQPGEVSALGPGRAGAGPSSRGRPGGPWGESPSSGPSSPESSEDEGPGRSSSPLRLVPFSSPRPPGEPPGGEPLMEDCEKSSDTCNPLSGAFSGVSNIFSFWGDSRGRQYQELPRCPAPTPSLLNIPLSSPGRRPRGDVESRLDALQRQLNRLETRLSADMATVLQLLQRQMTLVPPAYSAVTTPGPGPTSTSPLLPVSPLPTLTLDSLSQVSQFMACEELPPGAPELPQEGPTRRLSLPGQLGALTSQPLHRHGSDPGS
# PROTOCOL_SUMMARY: Inhibition of human ERG channel at 3 uM
# inhibition at 3 µM values compiled below
QUANTITY: inhibition at 3 µM (%)

• CC(C)c1nc2c(C(=O)NCC3CCN(CC4CCN(S(C)(=O)=O)CC4)CC3)cccc2[nH]1 = 8
• CC(=O)N1CCC(CN2CCC(CNC(=O)c3cccc4[nH]c(C(C)C)nc34)CC2)CC1 = 22
• CC(C)c1nc2c(C(=O)NCC3CCN(CC(O)CN4CCN(S(C)(=O)=O)CC4)CC3)cccc2[nH]1 (stereo not drawn) = 5
